tested on: MDR1-MDCK cell monolayers; experiment: MDCK-MDR1 permeability assay for blood-brain-barrier penetration potential (Papp, efflux ratio); format: in vitro ADME; conditions: 5 μM, basolateral to apical, 120 minutes, pH 7.4
Each record is given Condition met if its reported MDCK-MDR1: % Recov B-A is strictly below 90%. Records at or above 90% are given Condition not met.

Enquiry: Confirm or reject: MDCK-MDR1: % Recov B-A of CN(c1cnc(-c2ccc(-c3cnn(C)c3)cc2O)nn1)[C@H]1C[C@@H]2CC[C@@H](N2)[C@H]1F (single isomer, unassigned) lies strictly below 90%
Return: Condition met

###

system: MDR1; experiment: MDCK-MDR1 permeability assay for blood-brain-barrier penetration potential (Papp, efflux ratio); assay type: in vitro ADME; details: dog, MDCK-MDR1, pH 7.4, Efflux ratio = Papp (B-to-A)/Papp (A-to-B)
readout.kind: efflux ratio at 120 min, 5 μM
Answers are plain numbers.

// known answers, use as guide
                                   compound  meas_value
0  CN(c1cnc(-c2ccc(-c3ccn(C)c(=O)c3)cc2O)nn1)[C@H]1C[C@@H]2CC[C@@H](N2)[C@H]1F (single isomer, unassigned)         152
1  Cn1cc(-c2ccc(-c3ncc(O[C@H]4C[C@@H]5CCC[C@@H](N5)[C@H]4F)nn3)c(O)c2)cn1 (single isomer, unassigned)           4
2  CN(C)C(=O)c1cc2cc(O)c(-c3ncc(N(C)[C@H]4C[C@@H]5CC[C@@H](N5)[C@H]4F)nn3)cc2o1 (single isomer, unassigned)          16
3  CN(c1cnc(-c2ccc(-c3cnn(C)c3)cc2O)nn1)[C@@H]1C[C@H]2CC[C@H](N2)[C@@H]1F (single isomer, unassigned)           7
4  Cn1cc(-c2ccc(-c3ncc(O[C@@H]4C[C@H]5CCC[C@H](N5)[C@@H]4F)nn3)c(O)c2)cn1 (single isomer, unassigned)           3

In the following, a different compound is considered.
Enquiry: Look up efflux ratio at 120 min, 5 μM: CN(c1cnc(-c2ccc(-c3cn[nH]c3)cc2O)nn1)[C@H]1C[C@@H]2CC[C@@H](N2)[C@H]1F (single isomer, unassigned)
Return: 24

###

system: MDR1-MDCK cell monolayers; experiment: MDCK-MDR1 permeability assay for blood-brain-barrier penetration potential (Papp, efflux ratio); type: in vitro ADME; conditions: 5 μM, basolateral to apical, 120 minutes, pH 7.4
Cut-off 90% on MDCK-MDR1: % Recov B-A: below means criterion met, at or above means criterion not met.

Solved cases below.
                                   molecule        label_value
0  CN(c1cnc(-c2ccc(-c3cn[nH]c3)cc2O)nn1)[C@H]1C[C@@H]2CC[C@@H](N2)[C@H]1F (single isomer, unassigned)  criterion not met
1  CN(c1cnc(-c2ccc(-c3ccn(C)c(=O)c3)cc2O)nn1)[C@@H]1C[C@H]2CC[C@H](N2)[C@@H]1F (single isomer, unassigned)  criterion not met
2  CN(C)C(=O)c1cc2cc(O)c(-c3ncc(N(C)[C@H]4C[C@@H]5CC[C@@H](N5)[C@H]4F)nn3)cc2o1 (single isomer, unassigned)  criterion not met

Enquiry: Consider the molecule CN(c1cnc(-c2ccc(-c3cn[nH]c3)cc2O)nn1)[C@@H]1C[C@H]2CC[C@H](N2)[C@@H]1F (single isomer, unassigned) . Is its MDCK-MDR1: % Recov B-A strictly less than 90%?
Return: criterion met
